# Tested on: MV4:11 human cancer cell lines
# assay-details: Anti-proliferative activity, CellTiter-Glo viability assay, 7 day protocol
# Type: cell-based
# reported-conditions: Homo sapiens, MV4-11, 168 h, MV4:11 cells, 7 day incubation, read-out: GI50 on cellular proliferation of MV4:11 human cancer cell lines
Recorded GI50, one value per entry.

- molecule: "COc1cc(CNC(=O)c2cc(Cn3ccn(C)c3=N)cc(-c3c(C)ccc4[nH]ncc34)c2)cc(OC)c1 [Example 35]"
  target-under-test: "MV4:11 human cancer cell lines"
  GI50: "9 µM"
- molecule: "Cc1cc([C@@H](NC(=O)c2cc(Cn3ccn(C4CC4)c3=N)cc(-c3cn(C(C)C)nc3C(F)(F)F)c2)C2CC2)ccc1F [Example 194]"
  target-under-test: "MV4:11 human cancer cell lines"
  GI50: "< 0.1 µM"
- molecule: "Cc1cc([C@@H](NC(=O)c2cc(Cn3ccoc3=N)cc(-c3ccc(F)cc3C(F)F)c2)C2CC2)ccc1F [Example 274]"
  target-under-test: "MV4:11 human cancer cell lines"
  GI50: "< 0.1 µM"
- molecule: "Cn1cc(-c2cc(Cn3ccn(C)c3=N)cc(C(=O)N[C@H](c3ccc(Cl)c(Cl)c3)C3CC3)c2)c(C(F)(F)F)n1 [Example 211]"
  target-under-test: "MV4:11 human cancer cell lines"
  GI50: "< 0.1 µM"
- molecule: "Cc1cc([C@@H](NC(=O)c2cc(CN3CCN(C)C3=N)cc(-c3cn(C)nc3C(F)(F)F)c2)C2CC2)ccc1F [Example 203]"
  target-under-test: "MV4:11 human cancer cell lines"
  GI50: "< 0.1 µM"
- molecule: "Cc1cc([C@@H](NC(=O)c2cc(Cn3cccc(F)c3=N)cc(-c3cccnc3C(F)(F)F)c2)C2CC2)ccc1F [Example 350]"
  target-under-test: "MV4:11 human cancer cell lines"
  GI50: "0.14 µM"

Qu. Which measured GI50 belongs to Cc1cnccc1-c1cc(Cn2ccn(C)c2=N)cc(C(=O)NCc2ccc(Cl)c(Cl)c2)c1 [Example 25] , tested on MV4:11 human cancer cell lines?
Ans. 6.1 µM
